- ASSAY_NAME: anorectic activity, food intake in the rat
- Assay type: in vivo
- CONDITIONS_USED: in vivo, ip, read-out: A/B, ratio acute toxicity to anorectic activity (therapeutic index)
Recorded selectivity ratio by entry

// selectivity ratio value for CC(=O)CN1CC=C(c2cccc(C(F)(F)F)c2)CC1.Cl [Example 5, hydrochloride] : 15.3

// selectivity ratio value for CCNC(C)Cc1cccc(C(F)(F)F)c1 (stereo not drawn) [fenfluramine, reference compound] : 15.8

// selectivity ratio value for Cl.FC(F)(F)c1cccc(C2=CCN(CC3CC3)CC2)c1 [Example 7, hydrochloride] : 24.6

// selectivity ratio value for CC(=O)CCN1CC=C(c2cccc(C(F)(F)F)c2)CC1.Cl [Example 6, hydrochloride] : 20.6

// selectivity ratio value for Cl.N#CCCN1CC=C(c2cccc(C(F)(F)F)c2)CC1 [Example 2, hydrochloride] : 17.1

// selectivity ratio value for Cl.N#CCCCN1CC=C(c2cccc(C(F)(F)F)c2)CC1 [Example 3, hydrochloride] : 23.3

====

- MEASURED_ON: post-synaptic serotonin receptors
- ASSAY_NAME: 3H-serotonin binding to rat cortex membranes (Peroutka and Snyder)
RECORDED_ENDPOINT: IC50

Known value: post-synaptic serotonin receptors IC50 of the compound CCNC(C)Cc1cccc(C(F)(F)F)c1 (stereo not shown) [fenfluramine, reference compound] equals > 10 µM

====

- ASSAY_NAME: acute toxicity, LD50 in the rat by oral or intraperitoneal route
- CONDITIONS_USED: in vivo, oral
- Text: the acute toxicity, expressed as LD50 in the rat by the oral or intraperitoneal route (A);
Counter-ions that a name gives are not always drawn.
RECORDED_ENDPOINT: LD50 (mg/kg)
Report only the number, with the unit mg/kg understood.

Below, each entry is followed by its recorded LD50 result.
1) Cl.N#CCCCN1CC=C(c2cccc(C(F)(F)F)c2)CC1 [Example 3]: 538
2) N#CCCCCN1CC=C(c2cccc(C(F)(F)F)c2)CC1 [Example 4, hydrochloride]: 336

// LD50 value for Cl.N#CCCN1CC=C(c2cccc(C(F)(F)F)c2)CC1 [Example 2] : 254

// LD50 value for CC(=O)CCN1CC=C(c2cccc(C(F)(F)F)c2)CC1.Cl [Example 6] : 299

// LD50 value for Cl.FC(F)(F)c1cccc(C2=CCN(CCC3CCCCC3)CC2)c1 [Example 10] : 488

====

- ASSAY_NAME: anorectic activity, food intake in the rat
- Assay type: in vivo
- CONDITIONS_USED: in vivo, oral, read-out: A/B, ratio acute toxicity to anorectic activity (therapeutic index)
Counter-ions that a name gives are not always drawn.
Decision: selectivity ratio beneath 30 gives criterion met; selectivity ratio meeting or exceeding 30 gives criterion not met.

// below: answered compounds
1. CCNC(C)Cc1cccc(C(F)(F)F)c1 (stereo not drawn) [fenfluramine, reference compound]: criterion met
2. Cl.FC(F)(F)c1cccc(C2=CCN(CCC3CCCCC3)CC2)c1 [Example 10, hydrochloride]: criterion not met
3. CC(=O)CCN1CC=C(c2cccc(C(F)(F)F)c2)CC1.Cl [Example 6, hydrochloride]: criterion met
4. Cl.N#CCCN1CC=C(c2cccc(C(F)(F)F)c2)CC1 [Example 2, hydrochloride]: criterion met
5. Cl.N#CCCCN1CC=C(c2cccc(C(F)(F)F)c2)CC1 [Example 3, hydrochloride]: criterion not met

Query: Hello, I'm reviewing records and need to know if selectivity ratio of N#CCCCCN1CC=C(c2cccc(C(F)(F)F)c2)CC1 [Example 4, hydrochloride] is below 30. Could you check?
Reply: criterion not met

====

Recorded LD50 by entry
- ASSAY_NAME: acute toxicity, LD50 in the rat by oral or intraperitoneal route
- CONDITIONS_USED: in vivo, ip
// return the numeric value with its unit appended

Below, each entry is followed by its recorded LD50 result.
1) CC(=O)CN1CC=C(c2cccc(C(F)(F)F)c2)CC1.Cl: 165 mg/kg
2) CC(=O)CCN1CC=C(c2cccc(C(F)(F)F)c2)CC1.Cl: 134 mg/kg
3) Cl.FC(F)(F)c1cccc(C2=CCN(CC3CC3)CC2)c1: 135 mg/kg
4) Cl.N#CCCCN1CC=C(c2cccc(C(F)(F)F)c2)CC1: 258 mg/kg

// LD50 value for `Cl.N#CCCN1CC=C(c2cccc(C(F)(F)F)c2)CC1` : 206 mg/kg
